organism: Rattus norvegicus; test: DrugMatrix - Regimen: Daily Repeat; type: toxicity, organism-based, Sprague-Dawley; set-up: regimen Daily Repeat, gender Male, age 6-8 weeks; conditions: in vivo, po, 0 mg/kg, 120 h, tissue Plasma, route oral GAVAGE, dose level Control, time 5 day, vehicle 100 % WATER
Experimental Endpoint: CREATININE (mg/dL)
Reply numerically in mg/dL, unit not repeated.

Compound | CREATININE [mg/dL]
CCCC(C)C1(CC)C(=O)NC(=O)NC1=O (stereo unspecified) [PENTOBARBITAL] | 0.17
CN(C)CCC=C1c2ccccc2CCc2ccccc21 [AMITRIPTYLINE] | 0.15
NC12CC3CC(CC(C3)C1)C2 [AMANTADINE] | 0.15
O=c1[nH]c(=O)n(C2CCCO2)cc1F (stereo unspecified) [TEGAFUR] | 0.21
CCN(C(C)=O)c1cccc(-c2ccnc3c(C#N)cnn23)c1 [ZALEPLON] | 0.15

Moving on to another compound below.
Exercise: For the compound CCN(CC)CCOC(=O)C1(C2CCCCC2)CCCCC1 [DICYCLOMINE] , what CREATININE is on record?
Key: 0.58

* * *

organism: Rattus norvegicus; experiment: DrugMatrix - Regimen: Daily Repeat; type: toxicity, organism-based, Sprague-Dawley; parameters: regimen Daily Repeat, gender Male, age 6-8 weeks; details: in vivo, iv, 0 mg/kg, 120 h, tissue Plasma, dose level Control, time 5 day, vehicle 100 % SALINE
The entries below come with measured PHOSPHORUS values attached.
Reply numerically in mg/dL, unit not repeated.

Solved cases below.
Compound | PHOSPHORUS (mg/dL)
C[N+](C)(C)CCOC(=O)CCC(=O)OCC[N+](C)(C)C.[Cl-].[Cl-] [SUCCINYLCHOLINE CHLORIDE] | 11.3
O=C(O)P(=O)(O)O | 12.3
O=c1[nH]c(=O)n([C@H]2C[C@H](O)[C@@H](CO)O2)cc1F | 11.52
COc1cccc2c1C(=O)c1c(O)c3c(c(O)c1C2=O)C[C@@](O)(C(C)=O)C[C@@H]3O[C@H]1C[C@H](N)[C@H](O)[C@H](C)O1 | 11.67

Exercise: For the compound N=C(N)c1ccc(OCCCCCOc2ccc(C(=N)N)cc2)cc1 , what PHOSPHORUS is on record?
Key: 11.3

* * *

The entries below come with measured TOTAL PROTEIN values attached.
species on record: Rattus norvegicus; assay: DrugMatrix - Regimen: Daily Repeat; assay type: toxicity, organism-based, Sprague-Dawley; set-up: regimen Daily Repeat, gender Male, age 6-8 weeks; details: in vivo, po, 0 mg/kg, 120 h, tissue Plasma, route oral GAVAGE, dose level Control, time 5 day, vehicle .5 % CMC
Reply numerically in G/DL, unit not repeated.

Solved cases below.
Molecule | Value Units | TOTAL PROTEIN
CCOc1nc2cccc(C(=O)O)c2n1Cc1ccc(-c2ccccc2-c2nnn[nH]2)cc1 | G/DL | 6.13
C[C@H]1[C@H](NC(=O)/C(=N\OC(C)(C)C(=O)O)c2csc(N)n2)C(=O)N1S(=O)(=O)O | G/DL | 5.98
C[C@]12CC[C@@H]3c4ccc(O)cc4CC[C@H]3[C@@H]1C[C@@H](O)[C@@H]2O | G/DL | 6.08
COc1cc(OC)c(C(=O)CCCN2CCCC2)c(OC)c1 | G/DL | 6.03
COc1ccccc1[N+](=O)[O-] | G/DL | 6.1
NC(=O)N1c2ccccc2CC(=O)c2ccccc21 [OXCARBAZEPINE] | G/DL | 6.1
CN1C(=O)CN=C(c2ccccc2)c2cc([N+](=O)[O-])ccc21 | G/DL | 6.77
C[C@@](Cc1ccc(O)c(O)c1)(NN)C(=O)O.O | G/DL | 5.98

Exercise: For the molecule CN(C)CCN(Cc1cccs1)c1ccccn1 , what TOTAL PROTEIN is on record?
Key: 6.55

Exercise: Now consider CCn1cc(C(=O)O)c(=O)c2cc(F)c(N3CCNC(C)C3)c(F)c21 (stereo unspecified) and answer again.
Key: 6.33

Exercise: Now consider COc1ccc2c(c1OC)C(=O)O[C@@H]2[C@H]1c2c(cc3c(c2OC)OCO3)CCN1C and answer again.
Key: 6.72

* * *

organism: Rattus norvegicus; experiment: DrugMatrix - Regimen: Daily Repeat; type: toxicity, organism-based, Sprague-Dawley; set-up: regimen Daily Repeat, gender Male, age 6-8 weeks; conditions: in vivo, po, 0 mg/kg, 72 h, tissue Plasma, route oral GAVAGE, dose level Control, time 3 day, vehicle 100 % WATER
Experimental Endpoint: CHLORIDE (MEQ/L)
Reply numerically in MEQ/L, unit not repeated.

Molecule | CHLORIDE, MEQ/L
CCN(CC)CCNC(=O)c1ccc(N)cc1 [PROCAINAMIDE] | 106.33

Exercise: For the molecule CCCC(C)C1(CC)C(=O)NC(=O)NC1=O (stereo unspecified) [PENTOBARBITAL] , what CHLORIDE is on record?
Key: 99.33

Exercise: Now consider NC12CC3CC(CC(C3)C1)C2 [AMANTADINE] and answer again.
Key: 102.5

Exercise: Now consider O=c1[nH]c(=O)n(C2CCCO2)cc1F (stereo unspecified) [TEGAFUR] and answer again.
Key: 99.83

Exercise: Now consider CN(C)CCC=C1c2ccccc2CCc2ccccc21 [AMITRIPTYLINE] and answer again.
Key: 102.5

Exercise: Now consider NC(=O)c1cccnc1 [NIACINAMIDE] and answer again.
Key: 103.17

Exercise: Now consider CCN(C(C)=O)c1cccc(-c2ccnc3c(C#N)cnn23)c1 [ZALEPLON] and answer again.
Key: 102.5

Exercise: Now consider CCN(CC)CCOC(=O)C1(C2CCCCC2)CCCCC1 [DICYCLOMINE] and answer again.
Key: 101.67

Exercise: Now consider CNC1=Nc2ccc(Cl)cc2C(c2ccccc2)=[N+]([O-])C1 [CHLORDIAZEPOXIDE] and answer again.
Key: 100.83

Exercise: Now consider C#Cc1cccc(Nc2ncnc3cc(OCCOC)c(OCCOC)cc23)c1 [ERLOTINIB] and answer again.
Key: 104.83

Exercise: Now consider CN(C)C(=O)Oc1cccc([N+](C)(C)C)c1.[Br-] [NEOSTIGMINE BROMIDE] and answer again.
Key: 99.33

* * *

organism: Rattus norvegicus; test: DrugMatrix - Regimen: Daily Repeat; type: toxicity, organism-based, Sprague-Dawley; parameters: regimen Daily Repeat, gender Male, age 6-8 weeks; details: in vivo, po, 0 mg/kg, […], tissue Blood, route oral GAVAGE, dose level Control, time 14 day, vehicle 100 % SALINE
Experimental Endpoint: ABSOLUTE BASOPHIL
Write the quantity with the unit trailing the number.

Exercise: For the molecule COc1cccc2c1C(=O)c1c(O)c3c(c(O)c1C2=O)C[C@@](O)(C(C)=O)C[C@@H]3O[C@H]1C[C@H](N)[C@H](O)[C@H](C)O1 [DAUNORUBICIN] , what ABSOLUTE BASOPHIL is on record?
Key: 93.3 cells/µL

* * *

The entries below come with measured MEAN CORPUSCULAR HEMOGLOBIN values attached.
organism: Rattus norvegicus; test: DrugMatrix - Regimen: Daily Repeat; assay type: toxicity, organism-based, Sprague-Dawley; design: regimen Daily Repeat, gender Male, age 6-8 weeks; details: in vivo, po, 0 mg/kg, 120 h, tissue Blood, route oral GAVAGE, dose level Control, time 5 day, vehicle .5 % CMC

Compound | Reading
NC(=O)N1c2ccccc2CC(=O)c2ccccc21 [OXCARBAZEPINE] | 25.02 pg
CCn1cc(C(=O)O)c(=O)c2cc(F)c(N3CCNC(C)C3)c(F)c21 (stereo not drawn) | 21.96 pg

Exercise: For the compound C[C@@](Cc1ccc(O)c(O)c1)(NN)C(=O)O.O , what MEAN CORPUSCULAR HEMOGLOBIN is on record?
Key: 23.22 pg

Exercise: Now consider COc1ccc2c(c1OC)C(=O)O[C@@H]2[C@H]1c2c(cc3c(c2OC)OCO3)CCN1C and answer again.
Key: 19.82 pg

Exercise: Now consider C[C@]12CC[C@@H]3c4ccc(O)cc4CC[C@H]3[C@@H]1C[C@@H](O)[C@@H]2O and answer again.
Key: 23.95 pg

Exercise: Now consider COc1cc(OC)c(C(=O)CCCN2CCCC2)c(OC)c1 and answer again.
Key: 24.97 pg

Exercise: Now consider CCCNC(=O)NS(=O)(=O)c1ccc(Cl)cc1 [CHLORPROPAMIDE] and answer again.
Key: 24.37 pg

Exercise: Now consider CN1C(=O)CN=C(c2ccccc2)c2cc([N+](=O)[O-])ccc21 and answer again.
Key: 20.1 pg

Exercise: Now consider CCOc1nc2cccc(C(=O)O)c2n1Cc1ccc(-c2ccccc2-c2nnn[nH]2)cc1 and answer again.
Key: 24.78 pg

Exercise: Now consider CN(C)CCN(Cc1cccs1)c1ccccn1 and answer again.
Key: 20.45 pg

Exercise: Now consider COc1ccccc1[N+](=O)[O-] and answer again.
Key: 22.52 pg

Exercise: Now consider C[C@@H]1O[C@@H](O[C@H]2C[C@@H](O)[C@]3(CO)[C@H]4[C@H](O)C[C@]5(C)[C@@H](C6=CC(=O)OC6)CC[C@]5(O)[C@@H]4CC[C@]3(O)C2)[C@H](O)[C@H](O)[C@H]1O and answer again.
Key: 24.47 pg

Exercise: Now consider CN1CCN(C2=Nc3cc(Cl)ccc3Nc3ccccc32)CC1 and answer again.
Key: 24.37 pg
